Experimental Protocol: In vitro human liver microsomal metabolic stability (Example 4)
Format: in vitro ADME
Condition Notes: pooled human liver microsomes; half life in human liver microsomes; averages of duplicate determination; read-out: hLM t1/2
Lab note: anything with half-life below 50 min is marked true; values at 50 min or higher are marked false.

(Q) Determine if Cc1ccc(S(=O)(=O)N2CCC(C(=O)Nc3ccc4ccccc4c3)CC2)c(C)c1 shows half-life strictly lower than 50 min.
(A) true

(Q) half-life strictly < 50 min for this molecule? Cc1ccc(S(=O)(=O)N2CCC(C(=O)NCC3CCCCC3)CC2)c(C)c1
(A) true

(Q) API: query returns whether the molecule falls strictly under 50 min in half-life. Query: Cc1ccc(S(=O)(=O)N2CCC(C(=O)Nc3ccc(Cl)c(Cl)c3)CC2)c(C)c1
(A) true

(Q) Consider Cc1ccc(S(=O)(=O)N2CCC(C(=O)NC34CC5CC(CC(C5)C3)C4)CC2)c(C)c1 . Does its half-life lie strictly below 50 min?
(A) true

(Q) I wonder whether Cc1ccc(S(=O)(=O)N2CCC(C(=O)Nc3ccc(OC(F)(F)F)cc3)CC2)c(C)c1 has half-life below 50 min. Can you tell?
(A) true

(Q) Please indicate whether the reported half-life of Cc1ccc(S(=O)(=O)N2CCC(C(=O)Nc3ccc([N+](=O)[O-])cc3)CC2)c(C)c1 is strictly below 50 min.
(A) false

(Q) Lab log: compare recorded half-life with 50 min; is it strictly lower for Cc1ccc(S(=O)(=O)N2CCC(C(=O)Nc3ccc4cc(C(=O)O)ccc4c3)CC2)c(C)c1 ?
(A) false

(Q) Is it true that half-life reported for Cc1ccc(S(=O)(=O)N2CCC(C(=O)Nc3ccc4c(c3)OCO4)CC2)c(C)c1 is less than 50 min?
(A) true
